Test system: R2(VC) CHO cells (transporter-null)
test-description: growth inhibition, vector control R2(VC) CHO cells
Format: cell-based, Chinese hamster
experimental-parameters: Cricetulus griseus, Section IV Table 1
measurement-name: IC50

compound: CN(Cc1cnc2nc(N)nc(N)c2n1)c1ccc(C(=O)N[C@@H](CCC(=O)O)C(=O)O)cc1 [MTX, methotrexate, reference compound]
tested-on: R2(VC) CHO cells (transporter-null)
measurement-name: IC50
meas-value: > 1 µM

Proceed to the following item.
Just so you know, measured IC50 for Cc1nc2ccc(CN(C)c3ccc(C(=O)N[C@@H](CCC(=O)O)C(=O)O)s3)cc2c(=O)[nH]1 came out at > 1 µM

====

Tested on: D4 CHO cells expressing FRβ
test-description: growth inhibition, CHO D4 (FRβ)
Assay type: cell-based, Chinese hamster
experimental-parameters: Section IV Table 1; read-out: D4 IC50 (FRβ)
measurement-name: IC50 (nM)
A number alone suffices; assume nM.

Form: item Nc1nc2[nH]c(CCNc3cccc(C(=O)N[C@@H](CCC(=O)O)C(=O)O)c3)cc2c(=O)[nH]1 [AGF256] ; test system D4 CHO cells expressing FRβ; IC50: 4.19

====

We begin with a simple list: items and their reported IC50.
Test system: RT16 CHO cells expressing human FRα
test-description: growth inhibition, CHO RT16 (FRα)
Format: cell-based, Chinese hamster
experimental-parameters: Section IV Table 1; read-out: RT16 IC50 (FRα)
A number alone suffices; assume nM.

compound: Nc1nc2[nH]c(CCNc3cccc(C(=O)N[C@@H](CCC(=O)O)C(=O)O)c3)cc2c(=O)[nH]1 [AGF256]
measurement-name: IC50
unit-string: nM
meas-value: 15.9

Next compound, IC50 to be filled in.
Measured IC50, Nc1nc2[nH]c(CCOc3cccc(C(=O)N[C@@H](CCC(=O)O)C(=O)O)c3)cc2c(=O)[nH]1 [AGF220] : 30.3

====

System: D4 CHO cells expressing FRβ
test-description: growth inhibition, CHO D4 (FRβ)
Assay type: cell-based, Chinese hamster
experimental-parameters: Section IV Table 1; +FA; read-out: D4 (+FA) IC50
measurement-name: IC50

Value of IC50 reported for the compound Nc1nc2[nH]c(CCNc3cccc(C(=O)N[C@@H](CCC(=O)O)C(=O)O)c3)cc2c(=O)[nH]1 [AGF256] is > 1 µM

====

Test system: KB human tumor cells (RFC/FRα/PCFT)
test-description: growth inhibition, KB tumor cells
Assay type: cell-based
experimental-parameters: Section IV Table 1; read-out: KB IC50 (RFC/FRα/PCFT)
From the text: The experiments with the CHO sublines were extended to KB human nasopharengeal carcinoma cells which express highly elevated FRα, along with RFC and PCFT.
Readings of pIC50 for the listed compounds
Formally, pIC50 is defined as -log10 of the concentration c, with c in mol/L.

entry-smiles: Nc1nc2[nH]c(CCNc3cccc(C(=O)N[C@@H](CCC(=O)O)C(=O)O)c3)cc2c(=O)[nH]1
pIC50: 7.83

Now for another entry.
get_value(item= Nc1nc2[nH]c(CCOc3cccc(C(=O)N[C@@H](CCC(=O)O)C(=O)O)c3)cc2c(=O)[nH]1 , readout=pIC50) returns 7.88

====

Tested on: KB human tumor cells (RFC/FRα/PCFT)
test-description: growth inhibition, KB tumor cells
Assay type: cell-based
experimental-parameters: Homo sapiens, read-out: KB IC50 (FRα/PCFT/RFC)
measurement-name: IC50 (nM)
Only the number, expressed in nM, is required.

Item: CSc1ccc(N(C)c2nc(C)nc3cc[nH]c23)cc1 | IC50: 6.13

Taken from patent US10457688B2.
